method_notes: Dose normalized clearance in iv dosed adult human by HPLC
Format: ADME, organism-based
measurement_setup: in vivo
Starred links: 1 amine or outer side, 2 acyl side, 3 side chain; linkers in the order of their positions; H or OH if unused. Positions of bridges follow the written chain, without caps; N, C: chain ends. Non-standard residues stand in square brackets, D forms with d. Residues, ends and D or L forms follow the SMILES beside them. *: point of attachment. hTyr(3S-OH,4S-OH,3'-OSO3H) = N[C@H](C(=O)O)[C@H](O)[C@@H](O)c1ccc(O)c(OS(=O)(=O)O)c1; Orn(4R-OH,5R-OH) = O=C([C@H](C[C@@H](O)[C@@H](O)N[*:3])N[*:1])[*:2]; Pro(3S-OH,4S-Me) = C[C@H]1CN[C@H](C(=O)O)[C@H]1O; X1 = CCCCCOc1ccc(-c2cc(-c3ccc(C(=O)*)cc3)no2)cc1; Gln(3R-OH) = NC(=O)C[C@@H](O)[C@H](N)C(=O)O; Hyp = O=C(O)[C@@H]1C[C@@H](O)CN1
quantity_name: clearance (mL/min)
State the answer as a number, implicitly in mL/min.

Per the record, CCCCCOc1ccc(-c2cc(-c3ccc(C(=O)N[C@H]4C[C@@H](O)[C@@H](O)NC(=O)[C@@H]5[C@@H](O)[C@@H](C)CN5C(=O)[C@H]([C@H](O)CC(N)=O)NC(=O)[C@H]([C@H](O)[C@@H](O)c5ccc(O)c(OS(=O)(=O)O)c5)NC(=O)[C@@H]5C[C@@H](O)CN5C(=O)[C@H]([C@@H](C)O)NC4=O)cc3)no2)cc1 [MICAFUNGIN] (X1-[Orn(4R-OH,5R-OH)]T[Hyp][hTyr(3S-OH,4S-OH,3'-OSO3H)][Gln(3R-OH)][Pro(3S-OH,4S-Me)]; lactam 1-C) has clearance of 19.5
